Would you kindly list Stomach uptake for each of these compounds?
System: S180-bearing mice
Run description: Bio-distribution in tumor-bearing mice
Type: in vivo
Applied conditions: S180-bearing mice, tail vein, 30 min
Write the answer as a number in % ID/g, unit excluded.

query: Could you please provide reported Stomach uptake for O=C(CCC[N+]#[C][99Tc-5]([C]#[N+]CCCC(=O)NC1C(O)OC(CO)C(O)C1O)([C]#[N+]CCCC(=O)NC1C(O)OC(CO)C(O)C1O)([C]#[N+]CCCC(=O)NC1C(O)OC(CO)C(O)C1O)([C]#[N+]CCCC(=O)NC1C(O)OC(CO)C(O)C1O)[C]#[N+]CCCC(=O)NC1C(O)OC(CO)C(O)C1O)NC1C(O)OC(CO)C(O)C1O (stereo not shown) [[^99mTc-(CN3DG)6]^+] ? Thanks!
result: 0.64

query: Give recorded Stomach uptake. O=C(CCCCC[N+]#[C][99Tc-5]([C]#[N+]CCCCCC(=O)NC1C(O)OC(CO)C(O)C1O)([C]#[N+]CCCCCC(=O)NC1C(O)OC(CO)C(O)C1O)([C]#[N+]CCCCCC(=O)NC1C(O)OC(CO)C(O)C1O)([C]#[N+]CCCCCC(=O)NC1C(O)OC(CO)C(O)C1O)[C]#[N+]CCCCCC(=O)NC1C(O)OC(CO)C(O)C1O)NC1C(O)OC(CO)C(O)C1O (stereo not shown) [[^99mTc-(CN5DG)6]^+]
result: 0.50

query: Write down Stomach uptake measured for item O=C(CCCC[N+]#[C][99Tc-5]([C]#[N+]CCCCC(=O)NC1C(O)OC(CO)C(O)C1O)([C]#[N+]CCCCC(=O)NC1C(O)OC(CO)C(O)C1O)([C]#[N+]CCCCC(=O)NC1C(O)OC(CO)C(O)C1O)([C]#[N+]CCCCC(=O)NC1C(O)OC(CO)C(O)C1O)[C]#[N+]CCCCC(=O)NC1C(O)OC(CO)C(O)C1O)NC1C(O)OC(CO)C(O)C1O (stereo not shown) [[^99mTc-(CN4DG)6]^+]
result: 0.81

query: Return reported Stomach uptake. Input compound: O=C(CC[N+]#[C][99Tc-5]([C]#[N+]CCC(=O)NC1C(O)OC(CO)C(O)C1O)([C]#[N+]CCC(=O)NC1C(O)OC(CO)C(O)C1O)([C]#[N+]CCC(=O)NC1C(O)OC(CO)C(O)C1O)([C]#[N+]CCC(=O)NC1C(O)OC(CO)C(O)C1O)[C]#[N+]CCC(=O)NC1C(O)OC(CO)C(O)C1O)NC1C(O)OC(CO)C(O)C1O (stereo not shown) [[^99mTc-(CN2DG)6]^+]
result: 0.38
